System: 786-0
assayText: NCI tumour cell line growth inhibition, 48 h
Active and inactive are the calls of the source. Rule as the data show it: active = GI50 up to about 1.1 µM and inactive = higher.
assayReadout: GI50

Use the examples below as a reference point.
>  <compound>
CC(=O)NC1C(OCc2ccccc2)OC(CO)C(O)C1OCC(=O)N[C@@H](C)C(=O)N[C@H](CCC(=O)NCCCNc1ccc([N+](=O)[O-])c2[nH]c3ccccc3c(=O)c12)C(N)=O (stereo not given in full)

>  <GI50>
34.2 µM (inactive)

$$$$
>  <compound>
Nc1nc(Nc2ccc(Cl)cc2)sc1C(=O)c1cc2ccccc2oc1=O

>  <GI50>
19.5 µM (inactive)

$$$$
>  <compound>
O=C(O)CCNS(=O)(=O)c1ccc2ccccc2c1

>  <GI50>
> 100 µM (inactive)

$$$$
>  <compound>
CC(=O)Oc1ccc2c(=O)c(C(C)=O)coc2c1

>  <GI50>
> 100 µM (inactive)

$$$$

stdin: Lab request: please report GI50 under test system 786-0 for CC1CNC(NS(=O)(=O)c2cc(C(=O)Nc3ccc(Cl)cc3)c(Cl)cc2S)=NN1 (stereo not given)
stdout: 42.1 µM (inactive)

* * *

Test system: HT-29
assayText: NCI tumour cell line growth inhibition, 48 h
Activity calls are given as the source filed them. No stated cut-off is given here; in the data, active = GI50 up to about 1.1 µM and inactive = higher.
// GI50 lookup, one value per entry

Use the examples below as a reference point.
>  <compound>
O=C(O)COc1cc(-c2ccccc2)nc2ccccc12

>  <GI50>
35.4 µM (inactive)

$$$$
>  <compound>
CCCC/C=C/C1Cc2ccccc2CN1S(=O)(=O)c1ccc(C)cc1 (configuration not stated)

>  <GI50>
7.8 µM (inactive)

$$$$
>  <compound>
Cc1ccc(/C=N/C23CC4CC(CC(C4)C2)C3)cc1

>  <GI50>
> 100 µM (inactive)

$$$$
>  <compound>
O=C(O)c1cnc2[nH]ccn2c1=O

>  <GI50>
> 100 µM (inactive)

$$$$
>  <compound>
COc1cc(C(C)(C)C)c(OC(=O)/C=C/C(=O)O/C=C/[N+](=O)[O-])c(C(C)(C)C)c1

>  <GI50>
21.1 µM (inactive)

$$$$

stdin: What measured GI50 goes with CC(=O)OC1CCC2OOC1O2 (configuration not stated) ?
stdout: > 100 µM (inactive)

* * *

System: SN12C
assayText: NCI tumour cell line growth inhibition, 48 h
Activity calls are given as the source filed them. No stated cut-off is given here; in the data, active = GI50 up to about 1.1 µM and inactive = higher. *1 amine or outer side, *2 acyl side, *3 side chain or, on linkers, in order; H or OH if unused. Where a SMILES comes first, the peptide text is derived from it. Square brackets hold non-standard residues; d marks the D form. Bridges are numbered along the chain shown (N, C = ends). Roman numbers before positions name the chains, in order. Peptide text beside a SMILES is read from it. [ ]: non-standard residue; d: D form. * marks the point of attachment. ξ: configuration not given here. Actinocin(9to1) = Cc1c2oc3c(C)ccc(C(=O)[*:1])c3nc-2c(C(=O)[*:2])c(N)c1=O; NMeV = CN[CH](C(=O)O)C(C)C; ξD = NC(CC(=O)O)C(=O)O; Ac3c = NC1(C(=O)O)CC1; Boc = CC(C)(C)OC(=O)*; OtBu = CC(C)(C)O*; Sar = CNCC(=O)O
Tick one outcome: active, inactive

>  <compound>
CC(C)(C)C(=O)OCC1OC(N=[N+]=[N-])C(OC(=O)C(C)(C)C)C(OC(=O)C(C)(C)C)C1OC(=O)C(C)(C)C (centres undefined)

>  <assignedLabel>
inactive

$$$$
>  <compound>
COC(=O)C1(NC(=O)C(CC(=O)OC(C)(C)C)NC(=O)OC(C)(C)C)CC1 (centres undefined) (Boc-[ξD](OtBu)-[Ac3c]-OMe)

>  <assignedLabel>
inactive

$$$$
>  <compound>
Cc1nc2c(n1-c1ccc(Br)cc1)C(=O)c1ccccc1C2=O

>  <assignedLabel>
inactive

$$$$
>  <compound>
COc1cc2c(c3oc4c(O)cccc4c(=O)c13)CC(C(C)(O)CO)O2 (centres undefined)

>  <assignedLabel>
inactive

$$$$
>  <compound>
NC(=O)NNCc1ccccc1

>  <assignedLabel>
inactive

$$$$
>  <compound>
COc1ccc(-c2nc3ncccn3c2-c2ccc(S(C)(=O)=O)cc2)cc1

>  <assignedLabel>
inactive

$$$$

stdin: Which result was noted for this compound in the test: CCOC(C[C@H](O[Si](C)(C)C(C)(C)C)[C@H]1COC(=S)S1)OCC
stdout: inactive

stdin: Cool, now O=[N+]([O-])/C=C/c1cc(Cl)c(/C=C/[N+](=O)[O-])cc1Cl
stdout: inactive

stdin: Cool, now Cc1ccc(/N=C2\C(=O)C3=C(OC(C)(C)CC3)c3ccccc32)cc1
stdout: active

stdin: Cool, now Cc1c2oc3c(C)ccc(C(=O)NC4C(=O)NC(Cc5ccccc5)C(=O)N5CCCC5C(=O)N(C)CC(=O)N(C)C(C(C)C)C(=O)OC4C)c3nc-2c(C(=O)NC2C(=O)NC(Cc3ccccc3)C(=O)N3CCCC3C(=O)N(C)CC(=O)N(C)C(C(C)C)C(=O)OC2C)c(N)c1=O (centres undefined) (I: TFP[Sar][NMeV] / II: TFP[Sar][NMeV]; ester I:1-I:C, II:1-II:C; linker I:N-II:N via Actinocin(9to1); configuration not given here)
stdout: active

stdin: Cool, now CCC(C)C1NC(=O)C(NC(=O)C(CC(C)C)N(C)C(=O)[C@@H]2C=CCN2C(=O)[C@H](C)O)C(C)OC(=O)[C@H](Cc2ccc(OC)cc2)N(C)C(=O)[C@@H]2CCCN2C(=O)[C@H](CC(C)C)NC(=O)C(C)C(=O)[C@H](C(C)C)OC(=O)CC1O (some centres undefined)
stdout: active
